Entries annotated with measured Stability
Tested on: Liver microsomes
assay procedure: Metabolic stability in human liver microsomes assessed as compound remaining at 1 uM at 60 mins by LC/MS/MS analysis in absence of NADPH
Assay type: ADME, Microsome
assay context: microsomes, 1 h, 1 µM
Reply numerically in %, unit not repeated.

See these solved cases before continuing.
CC(C)[C@@H](OC(=O)N(C)C)[C@H]1C[C@@H](C)[C@H]2[C@H](O1)[C@H](O)[C@@]1(C)[C@@H]3CC[C@H]4C(C)(C)[C@@H](OC(=O)N5CCC5)CC[C@@]45C[C@@]35CC[C@]21C : 127
CC(C)[C@@H](OC(=O)N1CCC1)[C@H]1C[C@@H](C)[C@H]2[C@H](O1)[C@H](O)[C@@]1(C)[C@@H]3CC[C@H]4C(C)(C)[C@@H](OC(N)=O)CC[C@@]45C[C@@]35CC[C@]21C : 150
CC(C)[C@@H](OC(N)=O)[C@H]1C[C@@H](C)[C@H]2[C@H](O1)[C@H](O)[C@@]1(C)[C@@H]3CC[C@H]4C(C)(C)[C@@H](OC(=O)N5CCOCC5)CC[C@@]45C[C@@]35CC[C@]21C : 130

Next compound, Stability to be filled in.
Stability in this record for "CNC(=O)O[C@H](C(C)C)[C@H]1C[C@@H](C)[C@H]2[C@H](O1)[C@H](O)[C@@]1(C)[C@@H]3CC[C@H]4C(C)(C)[C@@H](OC(=O)N5CCC5)CC[C@@]45C[C@@]35CC[C@]21C" : 152
